target.or.system: T1, TCE-10 (anti-CD3 scFv R100A; anti-TROP2 wt)
T1 construct: scFv on the Fab heavy chain; also called TCE-10 (R100A)
protocol.text: competition ELISA, TCE on captured CD3; Table 40 peptide panel (FIGS. 91-102), limit >100 µM
Where no end group is shown, it is not given here.
property: pIC50
Please report pIC50 as the negative decimal logarithm of the molar concentration, giving only the number.

Input line: Quote pIC50 reported for VYCGPEFDESVGCA (cysteine pairing not given here; also: biotinylated, site not given here, mask peptide for the CD3 scFv) [Peptide-73] please.
Output line: 4.78
